FYI, the data here is from ChEMBL document CHEMBL3272255.

# Test system: Cavia porcellus
# Test Name: Antiplatelet activity in guinea pig assessed as inhibition of 0.8 ug/ml ADP-induced platelet aggregation measured as change in light transmittance at 30 mg/kg, po for 4 days measured at 2 hrs post last dose by aggregometric analysis relative to control
# Assay type: functional
Measured ΔT % at 30 mg/kg by item
Answer format: numeric, % implied, no suffix.

// worked examples, ΔT % at 30 mg/kg included
1) CC(/N=C1\CCCCCN1)c1ccc(Oc2ccccc2)cc1.Cl (centres undefined)
42.2
2) CC(/N=C1/CCCCCN1)c1cccc2ccccc12.Cl (centres undefined)
29
3) CCCC(C/N=C1/CCCCCN1)(c1ccccc1)c1ccccc1.Cl
35.3

Looking up CC(/N=C1\CCCCCN1)c1ccc2sc3ccccc3c2c1.Cl (centres undefined) , I found its ΔT % at 30 mg/kg recorded as 43.6

* * *

# Test Name: Antiplatelet activity in human platelet rich plasma assessed as inhibition of platelet factor-3 release at 100 ug/ml after 20 mins relative to control
# Type: functional
Readout Type: %max (%)
State the answer as a number, implicitly in %.

1. CC(/N=C1\CCCCCN1)c1ccc(Oc2ccccc2)cc1.Cl (stereo not drawn)
0.01
2. CC(/N=C1\CCCCCN1)c1ccc2c(ccc3ccccc32)c1.Cl (stereo not drawn)
0.06

Next item in the queue.
The reported %max of the compound CC(/N=C1\CCCCCN1)c1ccc2c(c1)Cc1ccccc1-2.Cl (stereo not drawn) was 0.06

* * *

# Test Name: Antiplatelet activity in human platelet rich plasma assessed as inhibition of ADP-induced platelet aggregation at 100 ug/ml after 20 mins by aggregometric analysis relative to control
# Type: functional
Some molecules, each annotated with its measured inhibition at 100 µg/mL.
# output: bare number, implied unit %

Record CC(/N=C1\CCCN1)c1cccc(OCCCCOc2ccccc2)c1 (stereo not drawn) . Reported inhibition at 100 µg/mL: 100

Documented inhibition at 100 µg/mL of CC(/N=C1\CCCCCN1)c1ccc2c(ccc3ccccc32)c1.Cl (stereo not drawn) : 100

Measured inhibition at 100 µg/mL of O=C(CO)OC(CC1CCCCN1)c1ccc(C=C2c3ccccc3-c3ccccc32)cc1 (stereo not drawn) : 99
